This collection of values is drawn from the supplement of paper PMC7877785.

# experimental-details: self-splicing fitness, log relative to wild type (ln ratio); higher = more splicing; Tetrahymena group I intron in knt gene, E. coli kanamycin selection, DiMSum; sequences stand for … in CUCUCU…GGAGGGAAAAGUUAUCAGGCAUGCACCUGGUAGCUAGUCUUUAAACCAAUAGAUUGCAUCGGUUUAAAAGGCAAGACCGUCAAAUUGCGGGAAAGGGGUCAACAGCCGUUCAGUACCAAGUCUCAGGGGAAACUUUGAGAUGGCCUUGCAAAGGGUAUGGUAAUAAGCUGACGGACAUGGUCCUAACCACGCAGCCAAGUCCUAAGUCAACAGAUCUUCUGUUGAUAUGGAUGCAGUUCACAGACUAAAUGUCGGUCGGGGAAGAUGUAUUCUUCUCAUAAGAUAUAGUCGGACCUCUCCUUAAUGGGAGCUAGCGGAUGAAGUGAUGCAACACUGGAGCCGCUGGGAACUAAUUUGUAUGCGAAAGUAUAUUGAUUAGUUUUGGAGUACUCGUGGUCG;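 further: selection with 25 µg/mL kanamycin versus none on LB agar overnight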
# condition-notes: 30 °C
Field: self-splicing fitness (ln). Provide a value for each of the sequences that follow.
// no unit, no text: just the number

# input sequence: "UUCGAGCAAUAUUACGGAGA" ; wanted: its self-splicing fitness (ln)
-1.63

"UUCCAGCAAUAUUACGGUAG" , same question.
-0.0875

Do the same for "UUUGAGCAAUAUUACGCGUU" please
-2.4

Check "ACAUAGCAAUAUUACGCAUG" too.
-2.85

Try the sequence "UAUUAGCAAUAUUACGGCCU"
-0.879

What about this sequence? "GUACAGCAAUAUUACGCCUA"
-1.06

Also need "GGCCAGCAAUAUUACGGGGA" , thanks.
-0.876

And what about the sequence "CGCUAGCAAUAUUACGGCUG" ?
-1.13

Param item: "CACUAGCAAUAUUACGACUA"
-2.82

"UAAAAGCAAUAUUACGUAAA" , same question.
-1.34

Next sequence up: "CUGGAGCAAUAUUACGUCCG"
-2.17

Similarly, "AUGCAGCAAUAUUACGGAGC" ?
-2.6

Here is the next sequence: "AUGCAGCAAUAUUACGAGCC"
-2.69

How about "CCACAGCAAUAUUACGUGGU" ?
-4.13

Can you check "GGAUAGCAAUAUUACGCUUC" next?
-3.86

Queued: "ACCAAGCAAUAUUACGUAGC"
-3.58

Try this sequence too: "CACGAGCAAUAUUACGGGAG"
-3.53

Subsequent entry: "CGUUAGCAAUAUUACGCCCU"
-1.26

Entry "GCAUAGCAAUAUUACGCAUG" please
-3.79

Could you do the same for "UAAUAGCAAUAUUACGUCGU" , please?
-2.91

Here is the next sequence: "AGCAAGCAAUAUUACGCCAA"
-2.89

Please answer likewise for "CAGGAGCAAUAUUACGUCAA"
-3.36

Proceed to "AUAAAGCAAUAUUACGGCUU"
-0.708

Now the same for "UCCCAGCAAUAUUACGAAAC"
-3.52

Param item: "AACCAGCAAUAUUACGGCCC"
0.0145

Next sequence: "GCACAGCAAUAUUACGCCUU"
-0.943

Now try "UACUAGCAAUAUUACGGGAG" .
-2.3

Can you handle "UCAUAGCAAUAUUACGUUGC" next?
-3.86

Would you mind doing "UCACAGCAAUAUUACGUACA" as well?
-1.53

Record: "UGUUAGCAAUAUUACGGUGC"
-3.76

And the next one, "CUAUAGCAAUAUUACGUCAG" ?
-1.75

What do you get for "CUCUAGCAAUAUUACGGUGU" ?
-3

Please answer likewise for "GCCAAGCAAUAUUACGCCUG"
-4.13

Now consider "GCUAAGCAAUAUUACGCCUU" .
-1.43

Let us now turn to "GUCGAGCAAUAUUACGGCAC"
-1.29

Can you check "CAACAGCAAUAUUACGCUGG" next?
-3.71

Lookup "GAAAAGCAAUAUUACGCGCA"
-0.195

Input "GCCUAGCAAUAUUACGAGCC"
-1.8

Try this sequence next: "GGGCAGCAAUAUUACGUCCG"
-0.61

Entry to check: "GCGAAGCAAUAUUACGGCCA"
-0.992

And what about the sequence "UGACAGCAAUAUUACGGCGA" ?
-0.625

Entry to check: "UCGCAGCAAUAUUACGCGGU"
-4.16

Entry to check: "AUCCAGCAAUAUUACGCGCC"
-0.363

Try this sequence next: "CUGCAGCAAUAUUACGCAGU"
-1.6

Another: "CGAUAGCAAUAUUACGCUUA"
-2.23

One more sequence: "GGCAAGCAAUAUUACGAAAU"
-0.0122

Another sequence to look at: "UGUCAGCAAUAUUACGACGA"
-0.0655

And the next one, "AUGAAGCAAUAUUACGUCGU" ?
-0.896

Try "UCGCAGCAAUAUUACGCUUA" next.
-1.67

Also check "UCAUAGCAAUAUUACGCUGU"
-2.91

Try the sequence "UGCGAGCAAUAUUACGCAGA"
-3.13

What do you get for "UCGUAGCAAUAUUACGCCGA" ?
-0.812

Further, for "GUGCAGCAAUAUUACGUCCC" ?
-0.912

Okay, and "ACGAAGCAAUAUUACGUAAU" ?
-2.57

Now the same for "AAACAGCAAUAUUACGGCCU"
-1.51

What do we get for "GAUGAGCAAUAUUACGUACC" ?
-0.53

Moving on to the next sequence: "GUCAAGCAAUAUUACGUGGU"
-4.8

"GGGAAGCAAUAUUACGCGUG" , same question.
-1.02

And "CAGAAGCAAUAUUACGAUCA" ?
-2.19

Consider next the sequence "GUUGAGCAAUAUUACGCUUG" in the same way.
-2.79

Record: "UGCUAGCAAUAUUACGGCAC"
-3.7

Now try "GCCUAGCAAUAUUACGGCCG" .
-3.44

Field entry: "UGUGAGCAAUAUUACGGCAA"
-1.83

Another sequence to check: "CUGCAGCAAUAUUACGAAGU"
-4.26

Request: "GGACAGCAAUAUUACGAAAG"
-3.73

Also check "UAGCAGCAAUAUUACGCUGA"
-2.19

Quick one: "GCACAGCAAUAUUACGUGUG"
-3.68
